- testTarget: C-C chemokine receptor type 2 (Homo sapiens); note: in other assays of this panel Not Active means under 50% inhibition at 10 µM
- Sequence (P41597 whole entry): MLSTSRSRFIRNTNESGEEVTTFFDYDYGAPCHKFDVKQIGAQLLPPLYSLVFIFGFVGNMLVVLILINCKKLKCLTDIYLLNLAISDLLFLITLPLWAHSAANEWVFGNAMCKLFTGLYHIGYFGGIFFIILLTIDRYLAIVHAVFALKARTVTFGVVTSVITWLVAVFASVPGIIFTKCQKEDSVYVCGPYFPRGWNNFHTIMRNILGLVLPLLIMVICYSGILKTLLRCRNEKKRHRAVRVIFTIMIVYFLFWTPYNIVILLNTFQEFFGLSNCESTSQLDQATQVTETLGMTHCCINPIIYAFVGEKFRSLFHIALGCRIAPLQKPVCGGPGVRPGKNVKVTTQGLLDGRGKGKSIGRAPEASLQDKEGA
- Type: cell membranes, CHO-K1, Membrane
- measurementConditions: cho-k1

| molecule | IC50 |
| --- | --- |
| C[C@]12CC[C@@H]3c4ccc(O)cc4CC[C@H]3[C@@H]1CC[C@@H]2O [ESTRADIOL] | Not Active |
| CO[C@H]1/C=C/O[C@@]2(C)Oc3c(C)c(O)c4c(c3C2=O)C2=NC3(CCN(CC(C)C)CC3)NC2=C(NC(=O)/C(C)=C\C=C\[C@H](C)[C@H](O)[C@@H](C)[C@@H](O)[C@@H](C)[C@H](OC(C)=O)[C@@H]1C)C4=O [RIFABUTIN] | Not Active |
| O=NN(CCCl)C(=O)NCCCl [CARMUSTINE] | Not Active |

Measured values drawn from ChEMBL document CHEMBL1909046 for this set.
